Molecular target: BRD4 in MDA-MB-231 cells (Homo sapiens, UniProt O60885)
Assay: BRD4 degradation rescue experiments, MDA-MB-231
Format: cell-based, H. sapiens
Settings: MDA-MB-231, co-treatment with CS-JQ1, 5 h
Observed Property: Rescue of CS-JQ1-induced BRD4 degradation by co-treatment

Look up and report Rescue of CS-JQ1-induced BRD4 degradation by co-treatment, with BRD4 in MDA-MB-231 cells (Homo sapiens, UniProt O60885) as system, for NS(=O)(=O)OC[C@H]1C[C@@H](Nc2ccnc3cc(-c4cccc(SC(F)(F)F)c4)nn23)[C@H](O)[C@@H]1O
restored BRD4 levels

Look up and report Rescue of CS-JQ1-induced BRD4 degradation by co-treatment, with BRD4 in MDA-MB-231 cells (Homo sapiens, UniProt O60885) as system, for NS(=O)(=O)OC[C@@H]1C[C@@H](n2ccc3c(N[C@H]4CCc5ccccc54)ncnc32)C[C@@H]1O
restored BRD4 levels
